target: RXRγ (Mus musculus); assay: Co-transfection assay; format: cell-based; conditions: read-out: RXRγ Pot
pEC50: −log10 of the molar value.
measured.endpoint: pEC50

Use these answered entries as a reference point.
{"columns": ["compound", "measured"],
 "data": [
  ["CC(/C=C/C=C(\\C)c1cc(C(F)(F)F)cc(C(F)(F)F)c1)=C\\C(=O)O", 5.66],
  ["CC(/C=C/C=C(\\C)c1cc(C(C)(C)C)cc(C(C)(C)C)c1)=C\\C(=O)O", "< 5.00"],
  ["C/C(=C/C=C/C(C)=C/C(=O)O)c1cc(C(C)C)cc(C(C)C)c1", 7.72],
  ["COc1c(C(C)(C)C)cc(/C(C)=C/C=C/C(C)=C/C(=O)O)cc1C(C)(C)C", "< 5.00"],
  ["COc1ccc(/C(C)=C/C=C/C(C)=C/C(=O)O)cc1 [B, reference compound]", "< 5.00"]
]}

Q: Entry COC(/C=C/C=C(\C)c1ccc(C(C)(C)C)cc1)=C/C(=O)O [D, reference compound] has what pEC50?
Ans: < 5.00

Q: Okay, and CC(/C=C/C=C1\CCOc2c1cc(C(C)(C)C)cc2C(C)(C)C)=C\C(=O)O ?
Ans: < 5.00

Q: Okay, and CCC/C(=C/C=C/C(C)=C/C(=O)O)c1cc(C(C)(C)C)cc(C(C)(C)C)c1 ?
Ans: 7.30

----------
Protein target, amino acids: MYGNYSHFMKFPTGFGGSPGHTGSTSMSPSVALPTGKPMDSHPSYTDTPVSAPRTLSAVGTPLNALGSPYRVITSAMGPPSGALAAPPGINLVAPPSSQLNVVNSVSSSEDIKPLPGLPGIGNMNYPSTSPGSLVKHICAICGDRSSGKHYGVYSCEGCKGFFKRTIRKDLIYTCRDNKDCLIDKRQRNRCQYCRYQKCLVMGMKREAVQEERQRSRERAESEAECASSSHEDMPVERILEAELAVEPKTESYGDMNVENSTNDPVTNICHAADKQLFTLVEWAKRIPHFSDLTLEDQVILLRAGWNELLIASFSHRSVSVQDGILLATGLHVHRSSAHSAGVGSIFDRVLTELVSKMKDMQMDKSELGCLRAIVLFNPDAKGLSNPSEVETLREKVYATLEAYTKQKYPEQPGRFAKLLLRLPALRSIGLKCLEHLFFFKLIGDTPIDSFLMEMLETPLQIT
measured.endpoint: pKd
pKd is defined as minus the log10 of a concentration measured in mol/L.

Q: Entry C/C(=C/C=C/C(C)=C/C(=O)O)c1cc(C(C)(C)C)cc(C(C)(C)C)c1 [Compound 10] has what pKd?
Ans: 8.05

----------
Below, each entry is listed alongside its reported pEC50.
Target: RXRα (Homo sapiens)
Sequence (P19793 1-462): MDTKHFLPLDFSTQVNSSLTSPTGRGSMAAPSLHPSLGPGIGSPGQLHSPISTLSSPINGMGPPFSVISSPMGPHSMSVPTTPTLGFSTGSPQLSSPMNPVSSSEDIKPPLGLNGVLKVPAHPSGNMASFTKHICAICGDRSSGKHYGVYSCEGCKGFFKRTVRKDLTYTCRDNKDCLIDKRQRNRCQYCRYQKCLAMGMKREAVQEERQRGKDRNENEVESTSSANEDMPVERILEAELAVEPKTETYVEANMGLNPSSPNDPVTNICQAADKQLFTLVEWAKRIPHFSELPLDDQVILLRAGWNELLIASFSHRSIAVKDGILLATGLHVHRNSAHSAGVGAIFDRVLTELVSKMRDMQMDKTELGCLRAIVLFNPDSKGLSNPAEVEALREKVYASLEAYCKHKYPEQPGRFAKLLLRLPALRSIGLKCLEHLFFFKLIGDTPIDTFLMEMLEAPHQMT
Assay: Co-transfection assay
Type: cell-based
Settings: read-out: RXRα Pot
pEC50: −log10 of the molar value.

Use these answered entries as a reference point.
{"columns": ["molecule", "pEC50"],
 "data": [
  ["COc1ccc(/C(C)=C/C=C/C(C)=C/C(=O)O)cc1OC [A, reference compound]", "< 5.00"],
  ["CCC/C(=C/C=C/C(C)=C/C(=O)O)c1cc(C(C)(C)C)cc(C(C)(C)C)c1", 7.70],
  ["COc1cc(C)c(/C=C/C=C/C=C(\\C)C(=O)O)c(C)c1C [C, reference compound]", "< 5.00"],
  ["CC(/C=C/C=C(\\C)c1cc(C(C)(C)C)cc(C(C)(C)C)c1)=C\\C(=O)O", "< 5.00"],
  ["CC(/C=C/C=C(\\C)c1cc(C(F)(F)F)cc(C(F)(F)F)c1)=C\\C(=O)O", 5.70],
  ["C/C(=C/C=C/C(C)=C/C(=O)O)c1cc(C(C)C)cc(C(C)C)c1", 7.57],
  ["C/C(=C/C=C/C(C)=C/C(=O)O)c1cc(C(C)(C)C)cc(C(C)(C)C)c1", 6.90],
  ["COC(/C=C/C=C(\\C)c1ccc(C(C)(C)C)cc1)=C/C(=O)O [D, reference compound]", "< 5.00"]
]}

Q: Entry COc1ccc(/C(C)=C/C=C/C(C)=C/C(=O)O)cc1 [B, reference compound] has what pEC50?
Ans: < 5.00

Q: Okay, and CC(/C=C/C=C1\CCOc2c1cc(C(C)(C)C)cc2C(C)(C)C)=C\C(=O)O ?
Ans: < 5.00

Q: Okay, and COc1c(C(C)(C)C)cc(/C(C)=C/C=C/C(C)=C/C(=O)O)cc1C(C)(C)C ?
Ans: < 5.00

----------
molecular target: RXRβ (Mus musculus); assay: Co-transfection assay; assay type: cell-based; conditions: read-out: RXRβ Pot
Sequence (P28704 whole entry): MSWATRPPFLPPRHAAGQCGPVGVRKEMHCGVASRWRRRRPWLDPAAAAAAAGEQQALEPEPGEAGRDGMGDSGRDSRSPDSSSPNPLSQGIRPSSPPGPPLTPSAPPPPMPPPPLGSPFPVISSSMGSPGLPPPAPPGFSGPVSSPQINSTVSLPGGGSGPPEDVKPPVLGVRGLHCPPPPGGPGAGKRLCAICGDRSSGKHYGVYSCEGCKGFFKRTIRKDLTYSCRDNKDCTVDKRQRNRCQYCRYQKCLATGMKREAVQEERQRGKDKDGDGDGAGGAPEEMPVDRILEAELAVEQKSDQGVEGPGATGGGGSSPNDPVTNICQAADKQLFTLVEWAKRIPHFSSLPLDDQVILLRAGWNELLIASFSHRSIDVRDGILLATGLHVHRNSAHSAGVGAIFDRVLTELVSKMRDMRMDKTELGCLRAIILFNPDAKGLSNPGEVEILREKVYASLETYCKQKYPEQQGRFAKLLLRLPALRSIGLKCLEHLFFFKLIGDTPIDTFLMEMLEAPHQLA
pEC50: −log10 of the molar value.
measured.endpoint: pEC50

Use these answered entries as a reference point.
{"columns": ["compound", "tested.on", "pEC50"],
 "data": [
  ["COc1cc(C)c(/C=C/C=C/C=C(\\C)C(=O)O)c(C)c1C [C, reference compound]", "RXRβ (Mus musculus)", "< 5.00"],
  ["COc1c(C(C)(C)C)cc(/C(C)=C/C=C/C(C)=C/C(=O)O)cc1C(C)(C)C [Compound 47]", "RXRβ (Mus musculus)", "< 5.00"],
  ["CC(/C=C/C=C(\\C)c1cc(C(F)(F)F)cc(C(F)(F)F)c1)=C\\C(=O)O [Compound 41]", "RXRβ (Mus musculus)", 6.58]
]}

Q: Entry C/C(=C/C=C/C(C)=C/C(=O)O)c1cc(C(C)C)cc(C(C)C)c1 [Compound 43] has what pEC50?
Ans: 7.57

Q: Okay, and COc1ccc(/C(C)=C/C=C/C(C)=C/C(=O)O)cc1OC [A, reference compound] ?
Ans: < 5.00

Q: Okay, and CCC/C(=C/C=C/C(C)=C/C(=O)O)c1cc(C(C)(C)C)cc(C(C)(C)C)c1 [Compound 28] ?
Ans: 6.98

Q: Okay, and COc1ccc(/C(C)=C/C=C/C(C)=C/C(=O)O)cc1 [B, reference compound] ?
Ans: < 5.00

Q: Okay, and CC(/C=C/C=C1\CCOc2c1cc(C(C)(C)C)cc2C(C)(C)C)=C\C(=O)O [Compound 39] ?
Ans: < 5.00

Q: Okay, and COC(/C=C/C=C(\C)c1ccc(C(C)(C)C)cc1)=C/C(=O)O [D, reference compound] ?
Ans: < 5.00

----------
Target protein (sequence): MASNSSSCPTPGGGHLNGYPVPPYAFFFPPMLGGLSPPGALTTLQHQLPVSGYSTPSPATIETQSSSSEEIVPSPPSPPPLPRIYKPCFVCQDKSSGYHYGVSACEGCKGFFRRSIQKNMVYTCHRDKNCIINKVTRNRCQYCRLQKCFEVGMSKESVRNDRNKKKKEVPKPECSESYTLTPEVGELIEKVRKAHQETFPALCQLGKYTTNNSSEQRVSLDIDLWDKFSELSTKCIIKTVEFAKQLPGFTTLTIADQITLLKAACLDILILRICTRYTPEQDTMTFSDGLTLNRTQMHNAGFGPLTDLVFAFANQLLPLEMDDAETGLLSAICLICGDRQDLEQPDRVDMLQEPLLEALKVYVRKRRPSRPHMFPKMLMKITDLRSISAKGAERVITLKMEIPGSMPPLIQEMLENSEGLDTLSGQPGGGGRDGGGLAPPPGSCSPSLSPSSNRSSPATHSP
measured.endpoint: Kd (nM)
Report the figure in nM without appending any unit label.

Q: Entry COc1ccc(/C(C)=C/C=C/C(C)=C/C(=O)O)cc1OC [A, reference compound] has what Kd?
Ans: 312

----------
system: TPA induction of ODC; experiment: Ornithine decarboxylase (ODC) assay, inhibition of TPA induction of ODC; type: cell-based; conditions: concentration required to inhibit the TPA induction of ODC by 80 percent
Below, each entry is listed alongside its reported IC80.
Report the figure in nM without appending any unit label.

{"columns": ["compound", "tested.on", "measured.endpoint", "measured"],
 "data": [
  ["CCOC(=O)/C=C(C)/C=C/C=C(/C)c1cc(C(C)(C)C)cc(C(C)(C)C)c1", "TPA induction of ODC", "IC80", 152],
  ["CC(/C=C/C=C(\\C)c1cc(C(C)(C)C)cc(C(C)(C)C)c1)=C\\C(=O)O", "TPA induction of ODC", "IC80", 0.93],
  ["C/C(=C/C=C/C(C)=C/C(=O)O)c1cc(C(C)(C)C)cc(C(C)(C)C)c1", "TPA induction of ODC", "IC80", 6.62]
]}

Q: Entry C/C(=C\c1ccc(C(=O)O)cc1)c1ccc2c(c1)C(C)(C)CCC2(C)C [TTNPB, reference compound] has what IC80?
Ans: 0.09

Q: Okay, and CCOC(=O)/C=C(C)/C=C/C=C(\C)c1cc(C(C)(C)C)cc(C(C)(C)C)c1 ?
Ans: 4.73
